Tested on: MS2 coat protein
protocol_notes: apparent KD of MS2 coat protein; designed switch direction (-1 OFF switch, 1 ON switch): -1; higher = weaker reporter binding
experimental_setup: input ligand: FMN 200 uM

sequence_string: GCGCUGCGAGGAUAUACAUGAGGAUCACCCAUGUGUCGGCAGCCAUGUUAGUACAAAUGUAGAAGGCGCGUAAA [EX3 #61] (Eterna round: R97, puzzle: Exclusion 3)
apparent KD of MS2 coat protein [nM]: 20.8

sequence_string: AGAUCUUCCGUAAGGAUAUGUGUGAAACAGACGGCACAGAAGGUACAUGAGGAUCACCCAUGUUACGCCGCGUA [Eternabot (L1) Solution 85] (Eterna round: R97, puzzle: Brourd's mod of Exclusion 4)
apparent KD of MS2 coat protein [nM]: 62.3

sequence_string: CAGUACGGAGGAUAUACAUGAGGAUCACCCAUGUACGCGGGUGUCACUGGGAGAACUUGUAGAAGGCCGAGUCC [Eternabot (L1) Solution 8] (Eterna round: R97, puzzle: Exclusion 3)
apparent KD of MS2 coat protein [nM]: 196

###

System: MS2 coat protein
protocol_notes: apparent KD of MS2 coat protein; designed switch direction (-1 OFF switch, 1 ON switch): 1; higher = weaker reporter binding
experimental_setup: input ligand: FMN 200 uM

sequence_string: GGUACCAACACAGGAUAUGCUAUCCUUUGGGUAGCAGAAGGGUGAAACAUGAGGAUCACCCAUGUGGUGCCAGGGCGUGAGCCC [JL SSNG1 1.93] (Eterna round: R96, puzzle: Same State NG 1)
units_label: nM
apparent KD of MS2 coat protein: 108
--
sequence_string: AGCUAGUACCGAGGAUAUACAUACAUGAGGAUCACCCAUGUAUACAUGAAUAUAUGAGACUACAUGUAGAAGGCGGUACUAGCA [Mat - Same State NG 2 - JL mod - D46] (Eterna round: R96, puzzle: Same State NG 2)
units_label: nM
apparent KD of MS2 coat protein: 16.2
--
sequence_string: ACAUGAGACAAAGGAUAUGGUGUACCUACAUGUGACAUGAGGAUCACCCAUGUGGUAAGUAUGACUCAGAAGGUUGAGAUAUGU [Equivalance 74 - Jieux - Same State NG 2] (Eterna round: R96, puzzle: Same State NG 2)
units_label: nM
apparent KD of MS2 coat protein: 37
--
sequence_string: GAAAGCAUGGGAGGAUAUAGCCUCUAUGGAGGGCUAGAAGGCCCUGGCCACAUGAGGAUCACCCAUGUGAAAUAAAUAGAAGAA [MOD Raarceza] (Eterna round: R96, puzzle: Same State NG 1)
units_label: nM
apparent KD of MS2 coat protein: 453

###

System: MS2 coat protein
protocol_notes: apparent KD of MS2 coat protein; higher = weaker reporter binding
experimental_setup: Eterna round: R107; input ligand: theophylline 2 mM

sequence_string: UGUAUGGACUGAAGGAGCGGGUUGAUAUCAUGAGGAUCACCCAUGGAAAAGGCGAAAGCCGCCCAGGUAGGUCGCAGUCCAUACU
target: MS2 coat protein
units_label: nM
apparent KD of MS2 coat protein: 37.5
--
sequence_string: ACAUACAUGAGGAUCACCCAUGUCCAUGUUCGAGGACCGGUACGGCCGCCACUCGCGCGACAGCAUGAGGAACUUGAGGAUCACA [Exclusion Tryptophan A]
target: MS2 coat protein
units_label: nM
apparent KD of MS2 coat protein: 82.2
--
sequence_string: GGGUGUGAUCCGGAUACCAGCGAACAUGAGGAUCACCCAUGUGACCUGAGAUCGGCUCUACGCCCUUGGCAGCCGCGGUCGCAGG [Same State Theophylline B GF13]
target: MS2 coat protein
units_label: nM
apparent KD of MS2 coat protein: 15.4
--
sequence_string: AGAUUCGACACGGCCGCCACUCGUGGAGGAUUUCCGAGUGUCGAACAUGAGGAUCACCCAUGUACGAGGACCGGGUGUUGAGUCU [XTryp B #14]
target: MS2 coat protein
units_label: nM
apparent KD of MS2 coat protein: 32.2
--
sequence_string: ACGAACGCACCUGAGGAACACCCAGGUGAUACCAGCCUGGAAACAGGCCCUUGGCAGCACCUAAAAUAAAGGUAACGUUCGAAUA [TheoAX8 #MicroSwitchBubble #AlternativeMS2]
target: MS2 coat protein
units_label: nM
apparent KD of MS2 coat protein: 180
--
sequence_string: GGUCUCGAGAGCGAUACCAGCUUGAUCGUACUGGCCUGGUACAUGAGGAUCACCCAUGUAAGCCCUUGGCAGCGCUCUCGAGACC [#1 Exclusion - Theophylline B Attempt #7 (HarryS)]
target: MS2 coat protein
units_label: nM
apparent KD of MS2 coat protein: 30.1
--
sequence_string: GCAUCCUAGUCGGCCGCCACUGGUACGAAUACCUUCACCCGUGUGCACAUGAGGAUCACCCAUGUCAGGACCGGGACUAGGAUGC [SSTryp B #23]
target: MS2 coat protein
units_label: nM
apparent KD of MS2 coat protein: 9.91
--
sequence_string: AAAUAAACCUCGGCCGCCACUCGCCAUGAGGAUCACCCAUGUAACAUGAGGAUCACCCAUGUACAGAGGACCGGGAGGUCCUAGU [Same State Tryptophan B GF 13]
target: MS2 coat protein
units_label: nM
apparent KD of MS2 coat protein: 87.1
--
sequence_string: AUCCAUAGCCGAAGGAGCGCAGUAGGAUGACAUGAGGAUCACCCAUGUGUGUGAUGUGGAUUGCAGGUAGGUCGCGGAGUGGGUU [Exclusion - Arginine B (Freestyle 7)]
target: MS2 coat protein
units_label: nM
apparent KD of MS2 coat protein: 134
--
sequence_string: UGUAUGGACUGAAGGAGCGGUAGAUAACCUGAGGAUCACCCGGGUAAUAAAGGCGAAAGCCACCAGGUAGGUCGCAGUCCAUACU
target: MS2 coat protein
units_label: nM
apparent KD of MS2 coat protein: 321
--
sequence_string: AAUGGUCGUACUGGAAUGGUGAUCCUCAAACGAGGACCGGUACGGCCGCCACUCGAUAACAUGAGGAUCACCCAUGUAAUAAUAA [|T'-M'-Trp-Ms2|_Design13b]
target: MS2 coat protein
units_label: nM
apparent KD of MS2 coat protein: 55.2
--
sequence_string: ACAUUUAACUGAAGGAGCGUGAAUAACAUGAGGAUCACCCAUGUAACUUAGAUGCUUAUUUCACAGGUAGGUCGCAGACUAAUGA [JR_ExcArginiB_Sub010]
target: MS2 coat protein
units_label: nM
apparent KD of MS2 coat protein: 10.3

###

Measured apparent KD of MS2 coat protein, listed per entry.
Tested on: MS2 coat protein
protocol_notes: apparent KD of MS2 coat protein; designed switch direction (-1 OFF switch, 1 ON switch): -1; higher = weaker reporter binding
experimental_setup: input ligand: microRNA oligo, concentration not stated
readout_name: apparent KD of MS2 coat protein (nM)

sequence_string: UUAUUAAUUAAGACUGCAAGAUCACAUGAGGAUCACCCAUGUCAGGAUAUCAGCUCGUGUAGAGCUGAGAAGGGACAAGCAGUC [ExNG3/15-A3] (Eterna round: R96, puzzle: Exclusion NG 3)
readout_name: apparent KD of MS2 coat protein
assay_value: 97.5
//
sequence_string: AUAAAUCAUGUAGGAUAUGCGUGGCGAAGCUAUGCAGAAGGACAUGAGGAUCACCCAUGUGCUUGCGUCUGCGUACAGAUGCUA [Mat - Exclusion NG 1 - Mod of JL - D5] (Eterna round: R96, puzzle: Exclusion NG 1)
readout_name: apparent KD of MS2 coat protein
assay_value: 37.7

###

System: MS2 coat protein
protocol_notes: apparent KD of MS2 coat protein; designed switch direction (-1 OFF switch, 1 ON switch): -1; higher = weaker reporter binding
experimental_setup: input ligand: microRNA oligo, concentration not stated
Decision: apparent KD of MS2 coat protein >= 40 nM yields yes (1), all other cases yield no (0).

sequence_string: CAGUACUGAGGAUAUACAUGAGGAUCACCCAUGUGUUCCAGCUAGGAAACUAGCAAUAGUAGAAGGCAGUACUG [salish99_ex3_r3_090x] (Eterna round: R96, puzzle: Exclusion 3)
cat: no (0)
--
sequence_string: UACAUGAGGAUCACCCAUGUUUUGUCGUGUAUGGUAUUUAUCUAGGAUAUCAUUAUAUUUAGUUAUGAGAAGGAGAAUAUUAAU [JMF's solution 82] (Eterna round: R96, puzzle: Exclusion NG 3)
cat: no (0)
--
sequence_string: CUGCUGGAGCGGCGCUUUGGUCGUACAUGAGGAUCACCCAUGUAGGAUAUGGUAAAAUUUGCUUGCUAGAAGGAUAGAGUGGUC [salish99_ExNG3_r04_615] (Eterna round: R96, puzzle: Exclusion NG 3)
cat: yes (1)
--
sequence_string: UUUGUUUAUGUAGGAUAUGCCUGGCGUGCCUUUGCAGAAGGACAUGAGGAUCACCCAUGUAACAUGAGGCUCACCCAUGUCGCA [salish99_ExNG1_r04_110] (Eterna round: R96, puzzle: Exclusion NG 1)
cat: yes (1)
